These data points were gathered from the RNAGym collection of RNA variant scans (doi:10.1101/gad.245936.114).

B1: tRNA (parent)
chain: CUCUCGGUAGCCAAGUUGGUUUAAGGCGCAAGACUUUAAUUUAUCACUACGAAAUCUUGAGAUCGGGCGUUCGACUCGCCCCCGGGAGAUUUUUUCCUCGAGCAA

- Variants of: B1
- protocol summary: nonsense suppression (GFP-seq) (ratio to wild type); higher = more function; SUP4oc tRNA, yeast GFP reporter sort-seq
This sample holds only a part of the variants without activity.
quantity: nonsense suppression

>  <seq text>
CUCUUGGUAGACAAGUUGGUGUAAGGCGCAAGACUUUAAUUUAUCACUACGAAAUCUUGAGAUCGGGCGUUCGACUCGCCCCCGGGUGAUUUUUUCCUCGAGCAA [C5U C11A U21G A87U]

>  <quantity>
nonsense suppression

>  <measured result>
≤ 0.026

$$$$

Q: Consider the variant CUCUCGGUAGGCAAGUUGGCUUAAUGCGCAAGACUUUAAUUUAUCACUACGAAAUCUUGAGAGCGGGCGUUCGAAUCCCCCCCGGGAGAUUUUUUCCUCGAGCAA [C11G U20C G25U U63G C75A G78C] and give its measured nonsense suppression.
Result: ≤ 0.026

Q: Consider the variant CUAUCGGUAGCCAAGUUGGUUUAAGGCGCAAGACUUUAAUUUAUCACUACGAAAUCUUGAGAUCGGUCGUUCGACUCGCCCCCGGGAGAUUUUUUCCUCGAGCAA [C3A G67U] and give its measured nonsense suppression.
Result: ≤ 0.026

Q: Consider the variant CUCUCGGUAGCUAAGUUGGUUUAAGGCGCAGGACUUUAAUUUAUCACUACGAAAUCUUGAGAUCGGGCGUUCGACUGGCCCCCGGGAGAUUUUUUCCUCGAGCAA [C12U A31G C77G] and give its measured nonsense suppression.
Result: ≤ 0.026

Q: Consider the variant CUCUCGGUAGCCAAGUUGGUUUAAGGCGCAAGACUUUAAUUUAUCACUACGAAAUCAUGAGAUCGGUCGUUCGACCCGCCCCCGGGAGAUUUUUUCCUCGAGCAA [U57A G67U U76C] and give its measured nonsense suppression.
Result: ≤ 0.026
